experiment: amyloid nucleation score (Sup35N fusion, yeast selection) (log enrichment); library NNK3; higher = more nucleation; inactive = no reads after selection;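 further: zero at mode of non-aggregating sequences after 7 days selection at 30°C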
recorded_metric: amyloid nucleation score

Below, each entry is followed by its recorded amyloid nucleation score result.
1. IYIGQFSLVVCVIIDIDI    1.75
2. VHVRLQAPFPEAL    inactive
3. LTTRGRNTRSEDMGEPGLWA    inactive
4. STPSLGTSF    inactive
5. LLVLVV    inactive

Asked: So what does the record say about amyloid nucleation score for FDTWFLRFRTNDVYLKVFFY ?
Given back: inactive

Asked: So what does the record say about amyloid nucleation score for LINAGTKFMQDTRSCWMHSS ?
Given back: inactive

Asked: So what does the record say about amyloid nucleation score for DLTTFQDMSTCTLWVTSGYT ?
Given back: inactive

Asked: So what does the record say about amyloid nucleation score for TEVFVHFTCEIGYIFLILFQ ?
Given back: inactive

###

assay: amyloid nucleation score (Sup35N fusion, yeast selection) (log enrichment); library NNK3; higher = more nucleation; inactive = no reads after selection
recorded_metric: amyloid nucleation score

1) HAFYALDKKVPVTQLKFARQ    -0.315
2) EWISLQVKNLTVSTVMLCLE    inactive
3) CVVIFICPQKG    0.811
4) YVWIDTMGL    inactive

Asked: So what does the record say about amyloid nucleation score for VHVYCNWKFRDEIRANSTRR ?
Given back: inactive

Asked: So what does the record say about amyloid nucleation score for VIPFPFNLGDYCRMFDPRRS ?
Given back: inactive

Asked: So what does the record say about amyloid nucleation score for YRSNEFISD ?
Given back: inactive

Asked: So what does the record say about amyloid nucleation score for VMMDWILQIVAYSSDHTGSK ?
Given back: inactive

Asked: So what does the record say about amyloid nucleation score for SLWRLMSETVGLKKMQ ?
Given back: inactive

Asked: So what does the record say about amyloid nucleation score for RSTVHRYSCDNCVEVIISKQ ?
Given back: 1.18

Asked: So what does the record say about amyloid nucleation score for FTQCNEAGCWHESDTNFMQC ?
Given back: 0.109

Asked: So what does the record say about amyloid nucleation score for ESMAFLRSSSLHKFVWTMYR ?
Given back: inactive

Asked: So what does the record say about amyloid nucleation score for FTSDGEYNRVLPGRSQGASF ?
Given back: -0.92

Asked: So what does the record say about amyloid nucleation score for NNCEVNLCSLELPWKTKLMM ?
Given back: 0.264

Asked: So what does the record say about amyloid nucleation score for KIQSSTNLPFGASL ?
Given back: inactive

Asked: So what does the record say about amyloid nucleation score for RFDESTRVCV ?
Given back: inactive

Asked: So what does the record say about amyloid nucleation score for MLLVLR ?
Given back: 0.972

###

assay: amyloid nucleation score (Sup35N fusion, yeast selection) (log enrichment); library NNK3; higher = more nucleation; inactive = no reads after selection
recorded_metric: amyloid nucleation score

Below, each entry is followed by its recorded amyloid nucleation score result.
1) SPFLKTTVAGLGSPRELSIR    inactive
2) ILLCRKYWFFRFTMVV    inactive
3) SICCGDSVVFTVSLPVAGSF    inactive
4) FLMKLWM    1.66
5) SQVVTVRCPDSSLCEIFSWG    inactive
6) TDGYFYDRSSVERSL    inactive
7) NSYMHGQDF    inactive
8) PYLAGWRSLIPFNTSLCSGC    inactive

Asked: So what does the record say about amyloid nucleation score for LVKTCRYRGSDLSVLVGVRI ?
Given back: inactive

Asked: So what does the record say about amyloid nucleation score for VTILYASASMESLSLGLCGT ?
Given back: inactive

Asked: So what does the record say about amyloid nucleation score for LHESRVAGSNQLSRRDHERW ?
Given back: inactive

Asked: So what does the record say about amyloid nucleation score for QSCVIVLKIGFWDVHSSMTF ?
Given back: 0.426

Asked: So what does the record say about amyloid nucleation score for HTLLHEF ?
Given back: inactive

Asked: So what does the record say about amyloid nucleation score for NSHWWCSGFVSVVKIVAEFG ?
Given back: 1.23

Asked: So what does the record say about amyloid nucleation score for NSSCSCTCLLSGHRHTP ?
Given back: 0.829

Asked: So what does the record say about amyloid nucleation score for ITESIVQFLAFWVRDTDYVC ?
Given back: inactive

Asked: So what does the record say about amyloid nucleation score for TKSRIWG ?
Given back: inactive

###

assay: amyloid nucleation score (Sup35N fusion, yeast selection) (log enrichment); library NNK2; higher = more nucleation; inactive = no reads after selection
recorded_metric: amyloid nucleation score

1. AKVNCISIITEDILILSEMV    inactive
2. FAKFQGSKISPVSHTSLLST    inactive
3. LPMNQGLHYKWLFFAISGGL    inactive

###

test: amyloid nucleation score (Sup35N fusion, yeast selection) (log enrichment); library NNK2; higher = more nucleation; inactive = no reads after selection
recorded_metric: amyloid nucleation score
Respond numerically, and do not add a unit to the figure.

Below, each entry is followed by its recorded amyloid nucleation score result.
1) TCVALSYLVGGSALNS    -0.818
2) SFLVISWRADRFAA    5.12
3) FFIYGNSHVSVIRYWTCTLT    7.39

Asked: So what does the record say about amyloid nucleation score for AGSLRR ?
Given back: 1.51

Asked: So what does the record say about amyloid nucleation score for MACKGLSLCFVWVLENKRRS ?
Given back: 0.454

Asked: So what does the record say about amyloid nucleation score for IFPFLDFRRFFLVYHVGPIS ?
Given back: 2.4

Asked: So what does the record say about amyloid nucleation score for YCAFSMYMFKGIIRYAICVV ?
Given back: -1.25

Asked: So what does the record say about amyloid nucleation score for HLLLEKDPSVWLWPKNRPGS ?
Given back: 3.35

Asked: So what does the record say about amyloid nucleation score for SFRFGEKDCWLDCCRVMRKK ?
Given back: 5.59

Asked: So what does the record say about amyloid nucleation score for YYKKTVVPYRLYAGLELIAT ?
Given back: -0.607

Asked: So what does the record say about amyloid nucleation score for HYAANVVRISYCGGHSRANF ?
Given back: 5.1

Asked: So what does the record say about amyloid nucleation score for MDWIPLMPTYGIWLPC ?
Given back: 0.045

Asked: So what does the record say about amyloid nucleation score for VVQGVIFNGDMLNRGSLGKI ?
Given back: -0.129

Asked: So what does the record say about amyloid nucleation score for YLLGKSYF ?
Given back: -1.08

Asked: So what does the record say about amyloid nucleation score for TNPSSKPAWVTSR ?
Given back: 0.007

Asked: So what does the record say about amyloid nucleation score for CPTNIRP ?
Given back: -1.18

Asked: So what does the record say about amyloid nucleation score for HSNALCLRFVLLPLSGIDIM ?
Given back: -0.295

Asked: So what does the record say about amyloid nucleation score for VDYASGGARGFGMVLRAFLE ?
Given back: 0.132

Asked: So what does the record say about amyloid nucleation score for IYKGTASIISCRWGWSVRHW ?
Given back: -0.573

###

assay: amyloid nucleation score (Sup35N fusion, yeast selection) (log enrichment); library NNK1; higher = more nucleation; inactive = no reads after selection
The label depends only on amyloid nucleation score: satisfied if it is at least -0.1, not satisfied if it is smaller.

Asked: Could you verify whether the entry NGNLKRSSEVFHCFGISLEF shows amyloid nucleation score of no less than -0.1?
Given back: satisfied

Asked: Could you verify whether the entry EGWPTSTLSLSRYALLGSPR shows amyloid nucleation score of no less than -0.1?
Given back: not satisfied

Asked: Could you verify whether the entry NSGNHDSCKFFGLLVRQMVG shows amyloid nucleation score of no less than -0.1?
Given back: satisfied

###

assay: amyloid nucleation score (Sup35N fusion, yeast selection) (log enrichment); library NNK1; higher = more nucleation; inactive = no reads after selection
recorded_metric: amyloid nucleation score

1) TECSSSGIALMWVFWRSICT    inactive
2) TEKAPGTGAKQANSKSSAYA    inactive
3) IDMGSGTNFSTCKCATLIMI    inactive

###

assay: amyloid nucleation score (Sup35N fusion, yeast selection) (log enrichment); library NNK2; higher = more nucleation; inactive = no reads after selection
recorded_metric: amyloid nucleation score

1. FVQAVDVVWFGILLKVLFRS    inactive
2. FHARPDSNPEENMVDSGI    inactive
3. DLDRPYRDIFGTT    inactive

###

experiment: amyloid nucleation score (Sup35N fusion, yeast selection) (log enrichment); library NNK1; higher = more nucleation; inactive = no reads after selection
recorded_metric: amyloid nucleation score

Below, each entry is followed by its recorded amyloid nucleation score result.
1. VSRPQMSSTTEHSTTDYFGC    inactive
2. RSTGTGTICV    inactive
3. DVILCAK    inactive
4. IGDKYGYCKYGRYADGQVIS    inactive
5. TSRALRREIARLKAYGSMMV    inactive

Asked: So what does the record say about amyloid nucleation score for PAPLQIRNMSSNAKTR ?
Given back: inactive

Asked: So what does the record say about amyloid nucleation score for SYAMLCIYVGYFIFLNSRMS ?
Given back: inactive

Data credit: the supplement of paper PMC12042874
